Taken from patent EP0097439A2.

# Experiment description: Plasma levels of 9-deoxo-16,16-dimethyl-9-methylene-PGE2 by radioimmunoassay after insertion of a suppository
# Format: in vivo, Rhesus monkeys (Macaca mulatta)
# Condition parameters: rhesus monkey, plasma, 30 mg, plasma; Monkey #9 (pregnant animal with uterine recording); 3 Hours; 30 mg Free Acid in H15 Plus 2% CSD Suppositories; read-out: Drug Levels

# Compound, concentration at 3 h (ng/mL)
measured = [
    ("C=C1C[C@@H](O)[C@H](/C=C/[C@@H](O)C(C)(C)CCCC)[C@H]1C/C=C\\CCCC(=O)O [Free Acid, 9-deoxo-16,16-dimethyl-9-methylene-PGE2]", 40.2),
]

###

# Experiment description: Plasma levels of 9-deoxo-16,16-dimethyl-9-methylene-PGE2 by radioimmunoassay after insertion of a suppository
# Assay type: in vivo, Rhesus monkeys (Macaca mulatta)
# Condition parameters: rhesus monkey, plasma, 30 mg, plasma; Monkey #4; 0.25 Hours; 30 mg Potassium Salt in H15 Suppositories; read-out: Drug Levels
# Description: A. Midtrimester pregnant female Rhesus monkeys (Macaca mulatta) are used. […] D. The plasma levels of 9-deoxo-16,16-d1methy1-9-methy1ene-PGE2 in monkeys treated with 6 formulations containing either 9-deoxo-16,16-dimethyl-9-methylene-PGE2 free acid or potassium salt are shown in Tables 1-6. In general, higher blood levels are measured in pregnant Rhesus monkeys than in non-pregnant monkeys.
Counter-ions that a name gives are not always drawn.

# Compound, Quantity unit, concentration at 0.25 h
records = [
    ("C=C1C[C@@H](O)[C@H](/C=C/[C@@H](O)C(C)(C)CCCC)[C@H]1C/C=C\\CCCC(=O)O [Potassium Salt]", "ng/mL", 128),
]

###

# Experiment description: Plasma levels of 9-deoxo-16,16-dimethyl-9-methylene-PGE2 by radioimmunoassay after insertion of a suppository
# Format: in vivo, Rhesus monkeys (Macaca mulatta)
# Condition parameters: rhesus monkey, plasma, 30 mg, plasma; Monkey #10; 2 Hours; 30 mg Potassium Salt in H15 Plus 2% CSD Suppositories; read-out: Drug Levels
Structures can show the parent of a compound that is named as a salt.
Observation type: concentration at 2 h

# Compound, Observation type, Value
rows = [
    ("C=C1C[C@@H](O)[C@H](/C=C/[C@@H](O)C(C)(C)CCCC)[C@H]1C/C=C\\CCCC(=O)O [Potassium Salt]", "concentration at 2 h", "3.57 ng/mL"),
]

###

# Experiment description: Plasma levels of 9-deoxo-16,16-dimethyl-9-methylene-PGE2 by radioimmunoassay after insertion of a suppository
# Format: in vivo, Rhesus monkeys (Macaca mulatta)
# Condition parameters: rhesus monkey, plasma, 30 mg, plasma; Monkey #5; 0.25 Hours; 30 mg Potassium Salt in H15 Suppositories; read-out: Drug Levels
Where a name gives a salt, the structure may show the parent alone.
Observation type: concentration at 0.25 h

# Compound, Observation type, Value
data = [
    ("C=C1C[C@@H](O)[C@H](/C=C/[C@@H](O)C(C)(C)CCCC)[C@H]1C/C=C\\CCCC(=O)O [Potassium Salt]", "concentration at 0.25 h", "10.9 ng/mL"),
]

###

# Experiment description: Plasma levels of 9-deoxo-16,16-dimethyl-9-methylene-PGE2 by radioimmunoassay after insertion of a suppository
# Type: in vivo, Rhesus monkeys (Macaca mulatta)
# Condition parameters: rhesus monkey, plasma, 30 mg, plasma; Monkey #1; 4.0 Hours; 30 mg Free Acid in H15 Suppositories; read-out: Drug Levels
# Method: A. Midtrimester pregnant female Rhesus monkeys (Macaca mulatta) are used. […] D. The plasma levels of 9-deoxo-16,16-d1methy1-9-methy1ene-PGE2 in monkeys treated with 6 formulations containing either 9-deoxo-16,16-dimethyl-9-methylene-PGE2 free acid or potassium salt are shown in Tables 1-6. In general, higher blood levels are measured in pregnant Rhesus monkeys than in non-pregnant monkeys.
Observation type: concentration at 4 h (ng/mL)

# Compound, Observation type, Value
measured = [
    ("C=C1C[C@@H](O)[C@H](/C=C/[C@@H](O)C(C)(C)CCCC)[C@H]1C/C=C\\CCCC(=O)O [Free Acid, 9-deoxo-16,16-dimethyl-9-methylene-PGE2]", "concentration at 4 h", 7.43),
]
